Catalogue of self-splicing fitness (ln) values
# test-method-notes: self-splicing fitness, log relative to wild type (ln ratio); higher = more splicing; Tetrahymena group I intron in knt gene, E. coli kanamycin selection, DiMSum; sequences stand for … in CUCUCU…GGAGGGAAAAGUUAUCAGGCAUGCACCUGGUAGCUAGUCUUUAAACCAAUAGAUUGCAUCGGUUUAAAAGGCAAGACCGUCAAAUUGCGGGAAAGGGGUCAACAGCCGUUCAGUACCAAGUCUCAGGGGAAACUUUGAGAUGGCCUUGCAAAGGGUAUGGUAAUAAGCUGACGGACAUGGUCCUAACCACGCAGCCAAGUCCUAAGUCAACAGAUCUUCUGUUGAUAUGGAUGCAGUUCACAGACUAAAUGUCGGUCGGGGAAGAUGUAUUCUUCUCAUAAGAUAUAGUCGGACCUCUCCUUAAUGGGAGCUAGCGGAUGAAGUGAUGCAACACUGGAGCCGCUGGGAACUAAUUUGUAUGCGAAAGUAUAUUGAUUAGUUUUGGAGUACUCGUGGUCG;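 note: selection with 25 µg/mL kanamycin versus none on LB agar overnight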
# particulars: 30 °C

sequence_input=AAUCAGCAAUAUUACGGCCC measured_result=-0.563
sequence_input=CACAAGCAAUAUUACGUUUU measured_result=-4.18
sequence_input=ACCGAGCAAUAUUACGCUUU measured_result=-3.06
sequence_input=UUGCAGCAAUAUUACGAAUG measured_result=-1.98

Kindly review the next sequence as well.
# query: self-splicing fitness (ln) of entry `GAAGAGCAAUAUUACGACCU` -1.45

====

# Lookup of reported self-splicing fitness (ln) keyed by entry
# test-method-notes: self-splicing fitness, log relative to wild type (ln ratio); higher = more splicing; Tetrahymena group I intron in knt gene, E. coli kanamycin selection, DiMSum; sequences stand for … in CUCUCU…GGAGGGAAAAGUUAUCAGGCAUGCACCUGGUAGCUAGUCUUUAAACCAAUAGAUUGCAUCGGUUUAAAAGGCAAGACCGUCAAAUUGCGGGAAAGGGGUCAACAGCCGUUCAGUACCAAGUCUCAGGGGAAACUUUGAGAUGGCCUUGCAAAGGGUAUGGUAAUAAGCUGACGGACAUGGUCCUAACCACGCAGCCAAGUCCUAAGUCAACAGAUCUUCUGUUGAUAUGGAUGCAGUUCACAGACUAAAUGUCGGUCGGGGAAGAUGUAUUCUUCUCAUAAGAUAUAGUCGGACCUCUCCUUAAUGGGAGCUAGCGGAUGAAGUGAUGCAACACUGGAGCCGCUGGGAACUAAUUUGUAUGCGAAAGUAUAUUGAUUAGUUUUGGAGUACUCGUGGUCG
# particulars: 37 °C
Please give the numeric answer without any surrounding text.

Consider the reported self-splicing fitness (ln) for these sequences:
sequence_input=UAAAAGCAAUAUUACGUACG measured_result=0.35
sequence_input=AGUUAGCAAUAUUACGCAUU measured_result=-0.806
sequence_input=CUAAAGCAAUAUUACGCGUC measured_result=-2.17
sequence_input=CUUAAGCAAUAUUACGAUAG measured_result=-0.283
sequence_input=AGUCAGCAAUAUUACGUAGU measured_result=-0.268

Using the record for `UUAGAGCAAUAUUACGCGUA` , report its self-splicing fitness (ln). -0.559

====

# test-method-notes: self-splicing fitness, log relative to wild type (ln ratio); higher = more splicing; Tetrahymena group I intron in knt gene, E. coli kanamycin selection, DiMSum; sequences stand for … in CUCUCU…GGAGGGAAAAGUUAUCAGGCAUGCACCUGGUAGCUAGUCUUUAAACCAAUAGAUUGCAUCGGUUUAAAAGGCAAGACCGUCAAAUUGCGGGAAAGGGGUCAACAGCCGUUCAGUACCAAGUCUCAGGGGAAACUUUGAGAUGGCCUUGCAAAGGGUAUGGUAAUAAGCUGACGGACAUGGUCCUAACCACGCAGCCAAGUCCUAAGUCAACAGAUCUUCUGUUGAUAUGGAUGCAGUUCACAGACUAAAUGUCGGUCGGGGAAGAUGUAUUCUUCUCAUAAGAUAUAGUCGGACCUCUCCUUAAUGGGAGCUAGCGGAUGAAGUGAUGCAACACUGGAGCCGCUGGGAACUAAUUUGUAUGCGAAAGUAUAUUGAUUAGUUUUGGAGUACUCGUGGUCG
# particulars: 30 °C
Respond with TRUE for self-splicing fitness (ln) values of -2 and above, FALSE for values below.

Answered cases to consult:
sequence_input=UGACAGCAAUAUUACGAAAA answer_label=FALSE
sequence_input=UAUGAGCAAUAUUACGUCUU answer_label=FALSE
sequence_input=AGCGAGCAAUAUUACGUUCA answer_label=TRUE

Form field: self-splicing fitness (ln) at least -2? Entry: `AGACAGCAAUAUUACGGAGU` FALSE

Thanks! And `GCUGAGCAAUAUUACGUGCU` ? FALSE

Next entry: `GGCUAGCAAUAUUACGAAUC` TRUE

====

# test-method-notes: self-splicing fitness, log relative to wild type (ln ratio); higher = more splicing; Tetrahymena group I intron in knt gene, E. coli kanamycin selection, DiMSum; sequences stand for … in CUCUCU…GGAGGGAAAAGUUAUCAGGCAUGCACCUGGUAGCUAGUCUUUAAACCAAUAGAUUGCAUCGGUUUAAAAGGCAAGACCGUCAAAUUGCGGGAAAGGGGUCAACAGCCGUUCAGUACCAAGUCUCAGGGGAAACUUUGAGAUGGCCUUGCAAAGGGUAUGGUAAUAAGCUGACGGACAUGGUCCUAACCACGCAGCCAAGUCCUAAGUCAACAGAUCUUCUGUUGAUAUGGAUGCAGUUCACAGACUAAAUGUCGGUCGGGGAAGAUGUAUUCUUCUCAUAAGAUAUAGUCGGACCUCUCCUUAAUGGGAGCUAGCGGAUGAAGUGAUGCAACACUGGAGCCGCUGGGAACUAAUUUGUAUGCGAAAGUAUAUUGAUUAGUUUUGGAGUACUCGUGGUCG
# particulars: 30 °C
Outcome label depends on self-splicing fitness (ln) relative to -3: at/above gives t, below gives f.

sequence_input=UCGUAGCAAUAUUACGGAAG answer_label=t
sequence_input=GGCCAGCAAUAUUACGUGGG answer_label=f
sequence_input=CCGUAGCAAUAUUACGUGUA answer_label=f
sequence_input=GCAAAGCAAUAUUACGGGCC answer_label=t

Record `CUAUAGCAAUAUUACGGAGU` ; criterion: self-splicing fitness (ln) no lower than -3. Met? f

Would you kindly repeat that for `AGGGAGCAAUAUUACGGCGU` ? t

// same read-out, input: `UAUUAGCAAUAUUACGAGUA` t

Same question for `AGGUAGCAAUAUUACGGGCU` please. t

Here is the next sequence: `ACGCAGCAAUAUUACGAAUC` f

Now consider `UUCGAGCAAUAUUACGAGGG` . f

Moving on to the next sequence: `UAGAAGCAAUAUUACGUUUA` t

// same read-out, input: `CACGAGCAAUAUUACGUUGU` f

And the next one, `GUUGAGCAAUAUUACGUAUG` ? t

And what about the sequence `UGUGAGCAAUAUUACGCGGA` ? t

How about `AAUUAGCAAUAUUACGUGGG` ? f

Would you kindly repeat that for `GAGAAGCAAUAUUACGAUCA` ? t

====

# self-splicing fitness (ln) annotations
# test-method-notes: self-splicing fitness, log relative to wild type (ln ratio); higher = more splicing; Tetrahymena group I intron in knt gene, E. coli kanamycin selection, DiMSum; sequences stand for … in CUCUCU…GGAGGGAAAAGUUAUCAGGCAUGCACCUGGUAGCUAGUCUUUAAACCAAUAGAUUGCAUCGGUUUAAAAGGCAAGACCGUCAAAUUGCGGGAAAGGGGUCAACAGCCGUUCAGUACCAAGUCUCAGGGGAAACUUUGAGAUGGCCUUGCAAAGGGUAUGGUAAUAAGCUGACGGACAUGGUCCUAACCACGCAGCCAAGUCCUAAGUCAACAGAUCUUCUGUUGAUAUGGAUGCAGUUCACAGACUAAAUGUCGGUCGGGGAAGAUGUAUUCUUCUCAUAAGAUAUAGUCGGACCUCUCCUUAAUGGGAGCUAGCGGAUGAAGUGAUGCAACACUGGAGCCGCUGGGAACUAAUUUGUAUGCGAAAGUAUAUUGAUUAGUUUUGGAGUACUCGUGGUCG
# particulars: 30 °C
Give your answer as a number; write no unit.

sequence_input=AAAGAGCAAUAUUACGGCAG quantity="self-splicing fitness (ln)" measured_result=-4.02
sequence_input=CACAAGCAAUAUUACGAAAU quantity="self-splicing fitness (ln)" measured_result=-2.91
sequence_input=AUCCAGCAAUAUUACGAAGC quantity="self-splicing fitness (ln)" measured_result=-2.53
sequence_input=CAAAAGCAAUAUUACGCAGG quantity="self-splicing fitness (ln)" measured_result=-2.51
sequence_input=GAGCAGCAAUAUUACGUGGG quantity="self-splicing fitness (ln)" measured_result=-3.13

I have this sequence here, `GGCAAGCAAUAUUACGCCUU` , and I need its recorded self-splicing fitness (ln). -2.83

Now consider `AGCGAGCAAUAUUACGGCGG` . -1.1

Try this sequence next: `AAUUAGCAAUAUUACGAUUU` -0.494
